# EXPERIMENTAL_DETAILS: BSK_SAg_Proliferation: Cell Proliferation Assessment in the BioMAP Diversity Plus: SAg Assay (AID 2283095);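 note: relative cell number as total protein by SRB absorbance in sub-confluent culture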
# SETUP_CONDITIONS: primary human HUVEC with PBMC
The source made the active and inactive calls. Rule for the calls: active = hit-call score of the fitted dose curve at least 0.9, where 1 is the maximum; inactive = score below 0.9.
REPORTED_PROPERTY: AC50

COMPOUND | AC50
CCCCOC(=O)COC(=O)c1ccccc1C(=O)OCCCC | inactive
CCCCCCCCCCCCc1cccc(S(=O)(=O)O)c1 | inactive
CCCCN(CCCC)C(=S)[S-].CCCCN(CCCC)C(=S)[S-].[Ni+2] | inactive
CCOC(=O)C(SP(=S)(OC)OC)c1ccccc1 (stereo unspecified) | 35.3 µM (active)
CCOP(=S)(OCC)OP(=S)(OCC)OCC | 20 µM (active)

Please look at the following compound next.
The measured AC50 associated with `COCC(=O)N(c1c(C)cccc1C)[C@H](C)C(=O)OC` reads inactive

###

# EXPERIMENTAL_DETAILS: ATG_RORE_CIS: Attagene CIS-FACTORIAL HepG2 Assay for human RAR-related Orphan Receptor Element (RORE) (AID 2282959)
# SETUP_CONDITIONS: HepG2 Attagene cis-factorial RORE reporter, mRNA; actives raise or lower the signal
Activity calls are given as the source filed them. Rule for the calls: active = hit-call score of the fitted dose curve at least 0.9, where 1 is the maximum; inactive = score below 0.9.
// one of label 1 = active, label 0 = inactive, no free text

Look up the recorded call for `COCCl` in this test. label 0

Look up the recorded call for `C=CCc1ccccc1O` in this test. label 0

Look up the recorded call for OC(Cc1ccccc1Cl)(Cn1cncn1)C1(Cl)CC1 (stereo not drawn) in this test. label 0

Look up the recorded call for CC(C)[C@H](C(=O)OC(C#N)c1cccc(Oc2ccccc2)c1)c1ccc(OC(F)F)cc1 (stereo partly drawn) in this test. label 0

Look up the recorded call for `CCCCOC(=O)COC(=O)c1ccccc1C(=O)OCCCC` in this test. label 1

Look up the recorded call for `O=C(NC(=O)c1c(F)cccc1F)Nc1cc(Cl)c(Oc2ncc(C(F)(F)F)cc2Cl)c(Cl)c1` in this test. label 0

Look up the recorded call for CCOC(=O)OC1=C(c2cc(C)ccc2C)C(=O)NC12CCC(OC)CC2 (stereo not drawn) in this test. label 0

Look up the recorded call for CC(C)=CC1C(C(=O)OCc2cccc(Oc3ccccc3)c2)C1(C)C (stereo not drawn) in this test. label 0

Look up the recorded call for `OC(c1ccc(Cl)cc1)(c1ccc(Cl)cc1)c1cccnc1` in this test. label 0

Look up the recorded call for `Cc1cc(Cl)ccc1N` in this test. label 0

Look up the recorded call for `CCOc1ccc(N)cc1` in this test. label 0

Look up the recorded call for `CC(F)(F)CC(F)(F)F` in this test. label 0

Look up the recorded call for `O=NN1CCOCC1` in this test. label 0

###

# SUBJECT_OF_TEST: mouse Estrogen Receptor alpha (Era), Esr1 (gene 13982) (UniProt P19785)
# Sequence (P19785 whole entry, looked up): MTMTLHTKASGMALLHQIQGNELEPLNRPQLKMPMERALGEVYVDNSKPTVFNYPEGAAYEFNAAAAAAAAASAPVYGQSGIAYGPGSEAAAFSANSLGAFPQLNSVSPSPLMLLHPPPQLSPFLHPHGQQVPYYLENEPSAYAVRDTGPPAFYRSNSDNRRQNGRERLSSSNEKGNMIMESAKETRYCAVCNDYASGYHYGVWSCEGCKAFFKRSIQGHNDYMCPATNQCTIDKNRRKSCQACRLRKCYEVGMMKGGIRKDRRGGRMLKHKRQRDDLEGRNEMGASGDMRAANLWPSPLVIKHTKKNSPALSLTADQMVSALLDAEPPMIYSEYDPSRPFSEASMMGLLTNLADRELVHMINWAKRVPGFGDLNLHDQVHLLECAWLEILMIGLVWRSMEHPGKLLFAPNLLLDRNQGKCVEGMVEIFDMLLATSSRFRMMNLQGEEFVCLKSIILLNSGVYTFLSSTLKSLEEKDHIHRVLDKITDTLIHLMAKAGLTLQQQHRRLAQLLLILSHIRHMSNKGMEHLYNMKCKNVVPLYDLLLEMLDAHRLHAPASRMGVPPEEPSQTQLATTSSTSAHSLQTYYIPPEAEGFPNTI
# EXPERIMENTAL_DETAILS: NVS_NR_mERa: NovaScreen (NVS) Nuclear Receptor Binding Assay for mouse Estrogen Receptor alpha (Era) (AID 2283378);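 note: hit means loss of bound radioligand signal relative to DMSO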
# Protocol: NVS_NR_mERa is a biochemical, single-readout assay that uses extracted gene-proteins in a cell-free assay. Measurements were taken 18 hours after chemical dosing in a 96-well plate.NVS_NR_mERa is one of one assay component(s) measured or calculated from the NVS_NR_mERa assay. […] This assay endpoint, NVS_NR_mERa, was analyzed in the positive analysis fitting direction relative to DMSO as the negative control and baseline of activity. […]
Results filed as inconclusive are left out. The source made the active and inactive calls. How the source made its calls: active means hit-call score of the fitted dose curve at least 0.9, where 1 is the maximum; inconclusive means response in the unintended direction; inactive means score below 0.9.
// one of true (1) for active, false (0) for inactive, no free text

SUBSTANCE_SMILES | GROUP
O=S1(=O)OC(c2cc(Br)c(O)c(Br)c2)(c2cc(Br)c(O)c(Br)c2)c2ccccc21 | false (0)
CC(=Cc1ccccc1)[N+](=O)[O-] | false (0)
COC(=O)c1cc(Oc2ccc(Cl)cc2Cl)ccc1[N+](=O)[O-] | false (0)
O=C(Cl)OCCOCCOC(=O)Cl | true (1)

Look up the recorded call for `CC(C)(C)c1cc([N+](=O)[O-])cc(C(C)(C)C)c1O` in this test. false (0)

Look up the recorded call for `O=C(CCl)Nc1ccccc1` in this test. false (0)

###

# EXPERIMENTAL_DETAILS: CCTE_Mundy_HCI_Cortical_Synap_Neur_Matur_SynapseCount: CCTE's Synaptogenesis and Neurite Maturation Assay in rat cortical cells for Synapse Count, Mundy Lab (AID 2284218)
The source made the active and inactive calls. How the source made its calls: active means hit-call score of the fitted dose curve at least 0.9, where 1 is the maximum; inactive means score below 0.9.
// one of active, inactive, no free text

Reference set (3 entries):
COMPOUND | GROUP
CC1(C)[C@H](C(=O)O[C@H](C#N)c2cccc(Oc3ccccc3)c2)[C@@H]1/C=C(\Cl)C(F)(F)F | active
CS(=O)(=O)c1ccc(C(=O)C2C(=O)CCCC2=O)c(Cl)c1COCC(F)(F)F | inactive
CC(C)[C@@H](Nc1ccc(C(F)(F)F)cc1Cl)C(=O)OC(C#N)c1cccc(Oc2ccccc2)c1 (stereo partly specified) | inactive

Look up the recorded call for `CNC(=O)CSP(=O)(OC)OC` in this test. inactive

Look up the recorded call for `Cc1ccccc1OP(=O)(Oc1ccccc1C)Oc1ccccc1C` in this test. active

Look up the recorded call for `NC(=O)c1ccc(N)nc1` in this test. active

###

# SUBJECT_OF_TEST: Hepatocyte nuclear factor 4-alpha (Homo sapiens) (UniProt P41235)
# Sequence (P41235 whole entry, looked up): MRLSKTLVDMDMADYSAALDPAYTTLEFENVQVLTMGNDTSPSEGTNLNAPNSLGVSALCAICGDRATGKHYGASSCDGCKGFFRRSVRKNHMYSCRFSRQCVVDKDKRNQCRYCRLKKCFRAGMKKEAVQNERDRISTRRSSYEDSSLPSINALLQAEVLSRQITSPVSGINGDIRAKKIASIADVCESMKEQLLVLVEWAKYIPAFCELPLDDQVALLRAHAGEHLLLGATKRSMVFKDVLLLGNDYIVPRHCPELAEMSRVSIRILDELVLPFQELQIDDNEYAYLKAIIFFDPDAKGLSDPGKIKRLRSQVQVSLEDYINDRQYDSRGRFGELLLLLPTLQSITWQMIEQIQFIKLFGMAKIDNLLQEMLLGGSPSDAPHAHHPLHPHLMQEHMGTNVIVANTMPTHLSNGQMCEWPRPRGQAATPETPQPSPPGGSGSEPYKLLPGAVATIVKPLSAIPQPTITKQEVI
# EXPERIMENTAL_DETAILS: ATG_HNF4a_TRANS: Attagene TRANS-FACTORIAL HepG2 Assay for human Hepatocyte Nuclear Factor 4 alpha (HNF4a) (AID 2282982)
# SETUP_CONDITIONS: HepG2 HNF4a transactivation reporter, mRNA readout
Records with an inconclusive call do not appear. Calls of active or inactive are those of the source. How the source made its calls: active means hit-call score of the fitted dose curve at least 0.9, where 1 is the maximum; inconclusive means response in the unintended direction; inactive means score below 0.9.
REPORTED_PROPERTY: outcome

Below: 5 compounds and their reported outcome.
SUBSTANCE_SMILES | outcome
C=CCc1ccccc1O | inactive
COc1nn(C(=O)NS(=O)(=O)c2ccccc2OC(F)(F)F)c(=O)n1C | inactive
c1csc(-c2ccc(-c3cccs3)s2)c1 | inactive
Clc1cnc(Oc2ccc(Oc3ncc(Cl)cc3Cl)cc2)c(Cl)c1 | inactive
NNCCO | inactive

The measured outcome associated with `Cc1ccc(CCl)cc1` reads inactive

The measured outcome associated with `CC(=Cc1ccccc1)[N+](=O)[O-]` reads inactive

The measured outcome associated with `N#Cc1ccncc1` reads inactive

###

# Read-out: Interleukin-8 (IL8), CXCL8 (gene 3576)
# EXPERIMENTAL_DETAILS: BSK_CASM3C_IL8: BioMAP Diversity Plus: CASM3C Assay for Interleukin-8 (IL8) Biomarker Activity (AID 2283042);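 note: IL-8 protein level quantified by ELISA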
# SETUP_CONDITIONS: primary human coronary artery smooth muscle cells; actives raise or lower the signal
The source made the active and inactive calls. Rule for the calls: active = hit-call score of the fitted dose curve at least 0.9, where 1 is the maximum; inactive = score below 0.9.
// one of yes (1) (active), no (0) (inactive), no free text

Reference set (3 entries):
COMPOUND | GROUP
CC(C)(C)c1cc([N+](=O)[O-])cc(C(C)(C)C)c1O | no (0)
O=C1C=CC(=O)c2ccccc21 | yes (1)
OC(Cc1ccccc1Cl)(Cn1cncn1)C1(Cl)CC1 (centres undefined) | no (0)

Look up the recorded call for `O=C(O)C1(c2ccc3c(c2)OC[C@H](Cc2ccc(-c4ccccc4)cc2)[C@H]3O)CCCC1` in this test. no (0)

###

# EXPERIMENTAL_DETAILS: ATG_RORE_CIS: Attagene CIS-FACTORIAL HepG2 Assay for human RAR-related Orphan Receptor Element (RORE) (AID 2282959)
# SETUP_CONDITIONS: HepG2 Attagene cis-factorial RORE reporter, mRNA; actives raise or lower the signal
# Protocol: ATG_CIS is a cell-based, multiplexed-readout assay that uses HepG2, a human liver cell line, with measurements taken at 24 hours after chemical dosing in a 24-well plate.ATG_RORE_CIS is one of 52 assay component(s) measured or calculated from the ATG_CIS assay. […] This assay endpoint, ATG_RORE_CIS, was analyzed with bidirectional fitting relative to DMSO as the negative control and baseline of activity. […]
Calls of active or inactive are those of the source. How the source made its calls: active means hit-call score of the fitted dose curve at least 0.9, where 1 is the maximum; inactive means score below 0.9.
// one of t (active), f (inactive), no free text

Reference set (5 entries):
COMPOUND | GROUP
Cc1cccc(C)c1NC(=O)CN1CCCC1=O | f
O=C1c2ccccc2C(=O)C1C(=O)C(c1ccccc1)c1ccc(Cl)cc1 (stereo not drawn) | t
BrCCCCBr | f
CCOP(=O)(OCC)OC(=CCl)c1ccc(Cl)cc1Cl | f
O=C(NC(=O)c1c(F)cccc1F)Nc1cc(Cl)c(F)c(Cl)c1F | f

# ---- query compound ----
Look up the recorded call for `O=C(Nc1ccc(Br)cc1)c1cc(Br)cc(Br)c1O` in this test. f

###

# SUBJECT_OF_TEST: Cellular tumor antigen p53 (Homo sapiens)
# EXPERIMENTAL_DETAILS: TOX21_p53_BLA_p2_ratio: Tox21 HCT-116 p53 Agonism Beta-lactamase Assay, Ratio, Phase 2 (AID 2283592)
Results filed as inconclusive are left out. Activity calls are given as the source filed them. How the source made its calls: active means hit-call score of the fitted dose curve at least 0.9, where 1 is the maximum; inconclusive means response in the unintended direction; inactive means score below 0.9.
// one of YES = active, NO = inactive, no free text

Reference set (6 entries):
COMPOUND | GROUP
Clc1cnc(Oc2ccc(Oc3ncc(Cl)cc3Cl)cc2)c(Cl)c1 | NO
CC(C)(c1ccccc1)c1cc(-n2nc3ccccc3n2)c(O)c(C(C)(C)c2ccccc2)c1 | NO
CCOP(=S)(OCC)Oc1ccc(Cl)cc1Cl | NO
O=C(Cc1ccccc1)OCCc1ccccc1 | NO
CCOP(=S)(OCC)SCSc1cc(Cl)ccc1Cl | NO
C=CCN=C=S | NO

Look up the recorded call for `C=CCCl` in this test. NO

Look up the recorded call for `c1csc(-c2ccc(-c3cccs3)s2)c1` in this test. YES
